Source listed as BindingDB's records for doi:10.1002/cbic.200800704.

Would you kindly list IC50 for each of these molecules?
Biological target: Carbonic anhydrase 2 (Homo sapiens, UniProt P00918)
Use nM as the unit, but write only the number.

Req: Reported IC50, molecule NS(=O)(=O)c1ccc(F)cc1 [4-Fuloro sulfonamide, C] : ____
Resp: 203

Req: Then this molecule: NS(=O)(=O)c1ccc(N2CCNCC2)cc1 [Piperazine moiety, 4]
Resp: 299

Req: Can you handle NS(=O)(=O)c1ccc(N2CCN(Cc3ccncc3)CC2)cc1 [Piperazine moiety, 3] next?
Resp: 48

* * *

Let's go through some Kd measurements on UniProtKB P00918 together.
Give a bare numeral; the unit nM is implied.

Req: Fill blank: measured Kd of the compound NS(=O)(=O)c1ccc(N2CCN(Cc3ccncc3)CC2)cc1 is ____.
Resp: 29

Req: Cool, now NS(=O)(=O)c1ccc(F)cc1 [4-Fuloro sulfonamide, C]
Resp: 435

Req: And what about the compound NS(=O)(=O)c1ccc(N2CCNCC2)cc1 ?
Resp: 426
